Target: T1, GIP receptor (UniProt P48546 22-466, limits assumed)
T1 sequence (looked up): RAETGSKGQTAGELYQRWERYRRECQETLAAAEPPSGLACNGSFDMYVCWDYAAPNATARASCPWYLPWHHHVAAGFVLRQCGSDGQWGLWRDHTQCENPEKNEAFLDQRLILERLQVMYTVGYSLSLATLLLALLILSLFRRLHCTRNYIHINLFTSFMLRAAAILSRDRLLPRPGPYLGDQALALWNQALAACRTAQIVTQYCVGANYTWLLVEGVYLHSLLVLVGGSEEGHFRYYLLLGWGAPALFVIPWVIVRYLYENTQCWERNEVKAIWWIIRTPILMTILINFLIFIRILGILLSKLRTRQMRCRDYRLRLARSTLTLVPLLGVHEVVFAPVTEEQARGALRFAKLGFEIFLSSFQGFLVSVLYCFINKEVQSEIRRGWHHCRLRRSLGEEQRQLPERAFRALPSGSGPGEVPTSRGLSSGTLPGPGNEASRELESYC
Experiment: cell-based or functional assay
*1 amine or outer side, *2 acyl side, *3 side chain or, on linkers, in order; H or OH if unused. Where no end group is shown, it is not given here. Side-chain parts run from the residue outwards. [ ]: non-standard residue; d: D form. The star is where a group is joined. γGlu = O=C(O)[C@H](CCC(=O)[*:2])N[*:1]; Palmitoyl = CCCCCCCCCCCCCCCC(=O)*; Aib = CC(C)(N)C(=O)O
metric name: EC50 (cAMP reporter) (nM)
Give the quantity in nM, number only.

Sample H[dS]QGTFTSDKSKYLDERAAQDFVQWLLDGGPSSGAPPPS-NH2 (not fully specified (residue 10)) [Analog No. 29: dSer2, K10acyl, E16, A18, L27, D28, G29 + CEX (SEQ ID NO: 27)] ; EC50 (cAMP reporter) observed: 0.085

Memo: H[Aib]QGTFTSDK(Palmitoyl)SKYLD[Aib]RAAQDFVQWLVKGGPSSGAPPPS-NH2 [Analog No. 53: Aib2, K10acyl, Aib16, A18, V27, K28, G29 + CEX (SEQ ID NO: 35)] , reported EC50 (cAMP reporter): 0.073

The binder listed as H[Aib]QGTFTSDK([γGlu-Palmitoyl])SKYLDERAAQDFVQWLLDGGPSSGAPPPS-NH2 [Analog No. 30: Aib2, K10acyl, E16, A18, L27, D28, G29 + CEX (SEQ ID NO: 28)] has a reported EC50 (cAMP reporter) of 0.003
